# EXPERIMENTAL DETAILS: pKa analysis by capillary electrophoresis (pKa PRO Analyzer, co-solvent method)
# Assay type: physicochemical
# PARTICULARS: methanol/aqueous co-solvent buffers, co-solvent method (60% to 30% methanol buffers), pH range 1.7-11.2, read-out: 1st pKa
Threshold rule: pKa greater than or equal to 5 is true; below that, false.

Query block: hey, is pKa for this one >= 5? C[C@H]1CCN1c1nc2c(c(-c3cncnc3)n1)CCC2
Result block: false

Query block: What do we get for O=S1(=O)CCNCc2ccc(-c3nc(N4CC[C@@H]4CF)nc4c3CCC4(F)F)cc21 ?
Result block: true

Query block: What do we get for C[C@H]1CCN1c1nc2c(c(-c3ccc(C4COCCN4)cc3)n1)CCC2 (stereo partly drawn) ?
Result block: true

Query block: What do we get for C[C@H]1CCN1c1nc2c(c(-c3cn4ccnc4s3)n1)CCC2 ?
Result block: false

Query block: What do we get for C[C@H]1CCN1c1nc2c(c(-c3cc[nH]n3)n1)CCC2 ?
Result block: false

Query block: What do we get for NC1(c2ccc(-c3nc(N4CC[C@@H]4C(F)F)nc4c3CCC4(F)F)cc2)COC1 (single isomer, unassigned) ?
Result block: true
